Source listed as ChEMBL document CHEMBL1777666.

# Measured Target: Aldehyde reductase AKR1A1 (Homo sapiens)
# Experimental Protocol: Inhibition of human recombinant aldehyde reductase after 10 mins by spectrophotometry analysis
Reported Metric: IC50

Prompt: Given the compound Cc1ccc2c(Cc3nc4c(F)c(F)cc(F)c4s3)cn(CC(=O)O)c2n1 , what is its reported IC50?
Response: > 100 µM
